# SYSTEM_TESTED: T1, human GIP receptor (human, UniProt P48546 22-466)
# T1 sequence (looked up): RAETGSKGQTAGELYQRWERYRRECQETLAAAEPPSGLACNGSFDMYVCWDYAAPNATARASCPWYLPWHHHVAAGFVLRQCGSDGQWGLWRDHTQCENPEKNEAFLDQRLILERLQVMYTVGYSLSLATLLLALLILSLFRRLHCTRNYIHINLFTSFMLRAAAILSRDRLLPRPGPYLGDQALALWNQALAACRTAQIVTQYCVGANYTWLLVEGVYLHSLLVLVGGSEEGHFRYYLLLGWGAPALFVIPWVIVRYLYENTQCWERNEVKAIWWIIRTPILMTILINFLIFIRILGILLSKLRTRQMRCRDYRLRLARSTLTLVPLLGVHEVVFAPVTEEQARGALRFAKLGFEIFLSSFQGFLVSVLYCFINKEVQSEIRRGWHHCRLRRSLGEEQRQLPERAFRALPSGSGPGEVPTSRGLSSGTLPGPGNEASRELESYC
# ASSAY_EXPLANATION: cell-based or functional assay
Starred links: 1 amine or outer side, 2 acyl side, 3 side chain; linkers in the order of their positions; H or OH if unused. Non-standard residues stand in square brackets, D forms with d. Groups on a side chain read outwards from the residue. No end group written: not given here. *: point of attachment. C18 diacid = O=C(O)CCCCCCCCCCCCCCCCC(=O)*; C16 diacid = O=C(O)CCCCCCCCCCCCCCC(=O)*; γGlu = O=C(O)[C@H](CCC(=O)[*:2])N[*:1]; Nle = CCCC[C@H](N)C(=O)O; AEEA = NCCOCCOCC(=O)O; Aib = CC(C)(N)C(=O)O
OUTCOME_MEASURE: cAMP antagonism nM (IC50, CisBio assay) (nM)
Give bare numbers, in nM.

Example binders with recorded cAMP antagonism nM (IC50, CisBio assay):
>>> value_measured("EGTFISDYSI[Aib][Nle]DKIK([AEEA-AEEA-γGlu-C18 diacid])QQDFVEWLLAQKPSSGAPPPS-OH [AT686]")
3.42
>>> value_measured("EGTFISDYSIA[Nle]DKIK([AEEA-AEEA-γGlu-C18 diacid])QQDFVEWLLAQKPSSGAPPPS-OH [AT683]")
15.9

Could you now consider this next binder?
cAMP antagonism nM (IC50, CisBio assay) reading for EGTFISDYSI[Aib]MDKIK(C16 diacid)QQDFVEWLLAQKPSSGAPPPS-OH [AT665] : 0.15
